species: Homo sapiens; experiment: Cytotoxicity in 2.2.15 cells; assay type: functional, cell-based; details: HepG2 2.2.15

compound	IC50
Nc1ccn([C@@H]2O[C@H](CO)C[C@@H]2F)c(=O)n1	> 200 µM
Nc1ncnc2c1ncn2[C@@H]1O[C@H](CO)C[C@@H]1F [LODENOSINE]	> 200 µM

----------
test: Cytotoxicity in human peripheral blood mononuclear (PBM) cells; format: functional, cell-based
pIC50: −log10 of the molar value.
quantity: pIC50

smiles_str	quantity	value_observed
Cc1cn([C@H]2C[C@H](N=[N+]=[N-])[C@@H](CO)O2)c(=O)[nH]c1=O	pIC50	< 4.00
Nc1ccn([C@@H]2O[C@H](CO)C[C@@H]2F)c(=O)n1	pIC50	< 4.00
Nc1ncnc2c1ncn2[C@@H]1O[C@H](CO)C[C@@H]1F	pIC50	< 4.00
